Each recorded value in this set is attributed to patent US20200399381A1.

Assayed target: T1, human IFNAR-1 protein (form not stated) (human, UniProt P17181 28-436, limits assumed)
T1 construct: bispecific ELISA
T1 sequence (looked up): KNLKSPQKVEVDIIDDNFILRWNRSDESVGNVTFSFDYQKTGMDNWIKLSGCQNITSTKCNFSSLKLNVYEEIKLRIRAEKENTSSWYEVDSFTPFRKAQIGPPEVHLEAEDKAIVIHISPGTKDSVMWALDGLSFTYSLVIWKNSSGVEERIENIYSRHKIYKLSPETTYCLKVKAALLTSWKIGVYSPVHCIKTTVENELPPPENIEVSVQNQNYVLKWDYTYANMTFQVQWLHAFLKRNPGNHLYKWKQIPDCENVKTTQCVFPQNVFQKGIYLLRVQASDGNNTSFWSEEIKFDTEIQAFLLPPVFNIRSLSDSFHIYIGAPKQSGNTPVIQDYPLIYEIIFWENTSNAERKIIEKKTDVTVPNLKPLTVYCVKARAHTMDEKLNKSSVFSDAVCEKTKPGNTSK
Experiment notes: affinity measurement of purified IgG at different concentrations (method not named)
Readout label: Kd (nM)
All answers are understood in nM, so give the number only.

Check out these entries, answers already filled in.
485G10-H1L2 (antibody, V domains shown, Humanized IgG expressed in HEK293; also called VH1 + VL2 (485G10)) VH: QVQLVQSGAEVKKPGASVKVSCKASGFNIKDYYIHWVRQAPGQGLEWMGRIDPEDAETKYAPKFQGRVTMTADTSISTAYMELSRLRSDDTVVYYCARYHGYWALDYWGQGTLVTVSS VL: DIQMTQSPSSLSTSVGDRVTITCKTSQNVGTNVAWYQQKPGKAPKPLIYSTSYRYSGVPSRFSGSGSGTDFTLTISSLQPEDFATYYCHQYFSYPYTFGPGTKVDIK    1.55
485G10-H2L3 (antibody, V domains shown, Humanized IgG expressed in HEK293; also called VH2 + VL3 (485G10)) VH: QVQLVQSGAEVKKPGASVKLSCKASGFNIKDYYIHWVKQAPGQGLEWIGRIDPEDAETKYAPKFQGRVTMTADTSISTAYMELSRLRSDDTVVYYCGRYHGYWALDYWGQGTLVTVSS VL: DIQMTQSPSSLSTSVGDRVTITCKTSQNVGTNVAWYQQKPGKAPKPLIYSTSYRYSGVPSRFSGSGSGTDFTLTISSVQPEDFATYYCHQYFSYPYTFGPGTKLDIK    1.96
485G10-H1L3 (antibody, V domains shown, Humanized IgG expressed in HEK293; also called VH1 + VL3 (485G10)) VH: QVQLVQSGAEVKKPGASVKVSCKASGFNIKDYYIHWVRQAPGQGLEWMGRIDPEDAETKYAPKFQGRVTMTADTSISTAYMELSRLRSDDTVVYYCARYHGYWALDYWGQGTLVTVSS VL: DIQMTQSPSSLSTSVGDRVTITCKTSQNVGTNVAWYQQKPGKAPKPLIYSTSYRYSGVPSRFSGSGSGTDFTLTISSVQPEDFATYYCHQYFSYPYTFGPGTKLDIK    1.24

// query Entry under review: 485G10-H1L4 (antibody, V domains shown, Humanized IgG expressed in HEK293; also called VH1 + VL4 (485G10)) VH: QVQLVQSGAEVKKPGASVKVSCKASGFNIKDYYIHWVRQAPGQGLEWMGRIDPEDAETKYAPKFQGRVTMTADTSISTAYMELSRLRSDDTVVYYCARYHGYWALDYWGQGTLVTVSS VL: DIQMTQSPSSLSTSVGDRVTVTCKTSQNVGTNVAWYQQKPGKAPKPLIYSTSYRYSGVPSRFSGSGSGTDFTLTISSVQPEDFATYYCHQYFSYPYTFGPGTKLDIK . Reported Kd?
// result 1.32
